tested on: M. tuberculosis H37Rv growth inhibition, 7H9 media; experiment: M. tuberculosis growth inhibition, HTS (AID 449762); details: measured here: IC90 growth inhibition;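 note: bacterial growth assessed after seven days of incubation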
Results filed as inconclusive are left out.
Reported IC90 by item:
Give the quantity in µM, number only.

Some solved entries appear below for comparison.
Reported IC90 ( "CCOC(=O)CN(C#N)c1nc(N(C)C)nc(N(C)C)n1" ) = 12.5

Reported IC90 ( "O=c1oc2ccccc2c2c1nc(C(F)(F)F)n2-c1ccccc1" ) = 31.1

Next:
Reported IC90 ( "COc1cnc(-c2ccccn2)nc1Oc1ccc(Cl)c2ccccc12" ) = 2.86

Reported IC90 ( Cc1cc2nc(C3CCN(CC4COc5ccccc5O4)CC3)[nH]c2cc1C (stereo not given) ) = 25.4
